The measurements presented in this section are drawn from patent US20040023887A1.

Target: T1, soluble IGF-1R (recombinant human IGF-1R extracellular domain, R&D Systems Cat. # 391-GR/CF) (human, UniProt P08069 31-935)
T1 construct: extracellular domain; Bought protein; coated on plates (phage ELISA, TRF) or Eu-labelled (TR-FRET); also called sIGF-1R; rhIGF-1R
Assay: phage ELISA
recordedMetric: log10 of ratio over background (log10 of the value in ratio)
On a log10 scale: recorded ratio over background, unit ratio.

Read the entry EAASLGSQDRNFYDWFVRQVV (on phage) [A6S-2-D11-IR] and write its reported log10 of ratio over background.
1.57

Report log10 of ratio over background, nothing else, for this binder: GAPVDQLHEDFYDWFVRQVSQAATG (on phage) [H2CA-2-B2-IGFR]
0.53

Input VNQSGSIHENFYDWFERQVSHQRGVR (on phage) [H2CA-4-F10-IGFR] , output reported log10 of ratio over background.
0.76

For the binder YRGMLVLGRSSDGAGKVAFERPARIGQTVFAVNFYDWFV (on phage) [A6L-0-E6-IR] , give its reported log10 of ratio over background.
1.49

Please look at this binder and report its log10 of ratio over background: FRTLAAQHDSFYDWFDRQVSGAAGER (on phage) [H2CA-3-C11-IGFR]
0.52

Name the recorded log10 of ratio over background of the binder listed here: RGQSDAFYSGLWALIGLSDG (on phage) [R20β-4-A6-IR]
1.41

Give me measured log10 of ratio over background, please, for this binder: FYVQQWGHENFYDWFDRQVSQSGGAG (on phage) [H2CA-4-F1-IGFR]
0.54
